Measured values drawn from PubChem BioAssay AID488841 for this set.

Entries and their inhibition values follow.
test: yeast NALP1 reporter signal suppression – S. cerevisiae, luminescence, single concentration, NALP1 inhibitor project, confirmation (AID 488841);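 further: plate controls were DMSO in galactose medium for no effect and cells in plain SD medium for full effect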; details: S. cerevisiae NALP1/ASC/Caspase-1 reporter, beta-gal luminescence; at 10 µM; active compounds read high
The campaign covered roughly 1,400 compounds. About 380 (27%) were called active. The list shows a part of the results.

>  <compound>
Cc1ccc(C(=O)Oc2ccc3c(c2)ncn3C)cc1

>  <unit abbrev>
%

>  <inhibition>
47.5

$$$$
>  <compound>
C=CCn1c(=O)c2ccc(C(=O)NCc3ccccc3)cc2n(Cc2ccccc2Cl)c1=O

>  <unit abbrev>
%

>  <inhibition>
27

$$$$
>  <compound>
CN1c2ccccc2Sc2cc(N)ccc21

>  <unit abbrev>
%

>  <inhibition>
94

$$$$
>  <compound>
CS(=O)(=O)n1nc(-c2ccc(Cl)cc2)nc1SCc1ccccc1

>  <unit abbrev>
%

>  <inhibition>
36.2

$$$$
>  <compound>
O=[N+]([O-])c1cccc(CNc2ccc3c(c2)CCC3)c1

>  <unit abbrev>
%

>  <inhibition>
52.9

$$$$
>  <compound>
O=C(c1ccc(Cl)c([N+](=O)[O-])c1)N(c1ccccn1)c1ccccn1

>  <unit abbrev>
%

>  <inhibition>
24.1

$$$$
>  <compound>
Cc1cc(C)cc(NS(=O)(=O)c2ccc(NC(=O)C3CCCCC3C(=O)O)cc2)c1 (stereo unspecified)

>  <unit abbrev>
%

>  <inhibition>
35.4

$$$$
>  <compound>
Cc1ccc(NC2(C#N)C(=O)Nc3ccccc32)cc1 (stereo unspecified)

>  <unit abbrev>
%

>  <inhibition>
30.8

$$$$
>  <compound>
Cc1cc(N2CCOCC2)n2ncc(-c3ccccc3)c2n1

>  <unit abbrev>
%

>  <inhibition>
46.7

$$$$
>  <compound>
Cc1cc(=O)oc2cc(OCC(=O)N3CCN(C(=O)c4ccco4)CC3)ccc12

>  <unit abbrev>
%

>  <inhibition>
21.1

$$$$
>  <compound>
COCC(=O)OCC(=O)Nc1cc(C(C)(C)C)nn1-c1ccccc1

>  <unit abbrev>
%

>  <inhibition>
25.4

$$$$
>  <compound>
Cc1ccc(C(=O)/C=C\C(=O)c2ccc(C)cc2)cc1

>  <unit abbrev>
%

>  <inhibition>
51.1

$$$$
>  <compound>
Cc1cc(C)n(CCOc2ccc(Cl)cc2Cl)n1

>  <unit abbrev>
%

>  <inhibition>
53.1

$$$$
>  <compound>
COC(=O)c1cc(OC)c(OC)cc1NC(=S)N1CCN(c2ccccc2)CC1

>  <unit abbrev>
%

>  <inhibition>
30

$$$$
>  <compound>
CCn1c(=O)cc(SCC(=O)N2CCN(C3CCCCC3)CC2)c2ccccc21

>  <unit abbrev>
%

>  <inhibition>
32.6

$$$$
>  <compound>
COc1cc(Cc2cnc(N)nc2N)cc(OC)c1OC

>  <unit abbrev>
%

>  <inhibition>
24.9

$$$$
>  <compound>
CCOC(=O)c1cnc2ccccc2c1Nc1cc(C(=O)O)ccc1C

>  <unit abbrev>
%

>  <inhibition>
26.6

$$$$
>  <compound>
O=C(Nc1ccc(Br)c(Cl)c1)C1CC1

>  <unit abbrev>
%

>  <inhibition>
56.2

$$$$
>  <compound>
Cc1nc2c(=O)n(C)c(=O)n(C)c2nc1Cl

>  <unit abbrev>
%

>  <inhibition>
36.3

$$$$
>  <compound>
c1ccc2cc(CSCc3nc4ccccc4[nH]3)ccc2c1

>  <unit abbrev>
%

>  <inhibition>
42.5

$$$$
>  <compound>
CC(C)NCCCCOc1cccc(Br)c1

>  <unit abbrev>
%

>  <inhibition>
43.9

$$$$
>  <compound>
CCOc1cc(-c2c(C)c(C)nc(N)c2C#N)ccc1O

>  <unit abbrev>
%

>  <inhibition>
30.4

$$$$
>  <compound>
O=C(NC(=O)N1CCN(c2ccc(F)cc2)CC1)c1ccccc1

>  <unit abbrev>
%

>  <inhibition>
32.6

$$$$
>  <compound>
COCCn1c(SCC(=O)NC(=O)NC(C)(C)C)nc2ccccc21

>  <unit abbrev>
%

>  <inhibition>
27.5

$$$$
>  <compound>
O=C(CN1CCN(c2cccc(Cl)c2)CC1)Nc1ccc(S(=O)(=O)N2CCOCC2)cc1

>  <unit abbrev>
%

>  <inhibition>
35.4

$$$$
>  <compound>
CNc1ccccc(-c2ccc3ccccc3n2)c1=O

>  <unit abbrev>
%

>  <inhibition>
24.8

$$$$
>  <compound>
O=C1/C(=C/c2cccnc2)SC(=S)N1C1CCS(=O)(=O)C1 (stereo unspecified)

>  <unit abbrev>
%

>  <inhibition>
44.6

$$$$
>  <compound>
O=C(c1ccc2c(Cl)c3c(nc2c1)CCCC3)N1CCN(c2ccc(F)cc2)CC1

>  <unit abbrev>
%

>  <inhibition>
64.8

$$$$
>  <compound>
COc1ccc(NC(=O)C2CCN(C(=O)c3ccc(OC)cc3)CC2)cc1

>  <unit abbrev>
%

>  <inhibition>
18.7

$$$$
>  <compound>
CC(NC(=O)c1ccc(F)cc1)C(=O)NC1=NCCS1 (stereo unspecified)

>  <unit abbrev>
%

>  <inhibition>
22.1

$$$$
>  <compound>
CCCOc1ccc(C(=O)NC(C)C(=O)O)cc1 (stereo unspecified)

>  <unit abbrev>
%

>  <inhibition>
29.1

$$$$
>  <compound>
O=C(c1cc(-c2ccc(O)cc2)on1)N1CCc2ccccc2C1

>  <unit abbrev>
%

>  <inhibition>
56.5

$$$$
>  <compound>
O=C(C(Cc1ccccc1)n1cccc1)N1CCN(c2ccccc2)CC1 (stereo unspecified)

>  <unit abbrev>
%

>  <inhibition>
46

$$$$
>  <compound>
Cc1ccc(-c2cc(NC(=O)CSc3n[nH]c(N)n3)n(-c3ccccc3)n2)cc1

>  <unit abbrev>
%

>  <inhibition>
24.2

$$$$
>  <compound>
CCOC(=O)c1cccnc1SCC(=O)NCc1ccccc1

>  <unit abbrev>
%

>  <inhibition>
41.5

$$$$
>  <compound>
CCOC(=O)C1CCCCN1Cc1cccc(F)c1 (stereo unspecified)

>  <unit abbrev>
%

>  <inhibition>
19.9

$$$$
